B1: TPR t1 (parent)
chain: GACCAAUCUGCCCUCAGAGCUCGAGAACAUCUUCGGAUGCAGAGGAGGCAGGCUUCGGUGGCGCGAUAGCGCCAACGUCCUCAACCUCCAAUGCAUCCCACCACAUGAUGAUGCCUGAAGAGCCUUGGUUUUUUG

Variants of: B1
PROTOCOL_TEXT: polymerase ribozyme fitness, log enrichment relative to wild type (log ratio); higher = more active; in vitro selection for triplet polymerase activity
REPORTED_METRIC: polymerase ribozyme fitness (log ratio)
Keep the answer to the number alone.

Recorded polymerase ribozyme fitness (log ratio), per entry:
GACCAAUCUGCCCUCAGAGCUCGAGAACAUCUUCGGAUGCAGAGGAGGCAGGCUUCGGUGGCGCGAUAGAGCCAACGUCCUCAAUCUCCAAUGCAUCCCACCACAUGAUCAUGCUUGAAGGGCCUUGGUUUUUUG [C70A C85U G110C C115U A121G]	-7.89
GACCAAUCUGCCUUCAGAGCUCGAGAACAUCUUCGGAGGCAGAGGAGGCAGGCUUCGGUGGCUCGAUAGCGCCAACGUGCUCAACCUUCAAUGCAUCCGACCACAUGAUUAUUCCUGAAGAGCCUUGGUUUUUUG [C13U U38G G63U C79G C88U C99G G110U G113U]	-6.9
GACCAAUCUGUCCUCAGAGCUCGAGAACAUCUUAGGAUGCAGAGGAGGCAGGCUUCGGUGGCGCGAUAGCGCCAACGUCCUCAACCUCCAAUGCAUCCCACCACAUGAUGAUGCCUGAAGAGCCUUGGUUUUUUG [C11U C34A]	-2.54

Sample GACCAAUCUGCCCACAGAGCUCGAGAACAUCUUCGGAUGCAGAGGAGGCAGGCUUCGGUGGCGCGAUAGCGCCAACGUCCUCAACCUCCAAUGCAUCCCACCACAUGAUGGUGCCUGAAGAGCCUUGGUAUUUUG [U14A A111G U130A] — what was its polymerase ribozyme fitness (log ratio)?
-3.57

Requested field: polymerase ribozyme fitness (log ratio). Item: GACCAAUCUGCCCUCAGAGCUCGAGAACAUCUUCGGAUACAAAGGGGGCAGGCUUCGAUGGCGCGAUAGCGCCAACGUCCUCAACCUCCAAUGCAUCCCACCACAUGAUGAUGCCUGAAGAGCCUUGGUUUUUUG [G39A G42A A46G G58A]
-2.47

# input variant: GACCAAUCUGCCCUCAGAGCUCGAGAACAUCUUCGGAUGCAGAGGAGGCAGGCUUCGGUGGAGCGAUAGCGCCAACGUCCUCAACCUCCAAUGCAUCCCACCACAUGAUUAUGCCUGAAGAGCCUUGGUUUUUUG [C62A G110U] ; wanted: its polymerase ribozyme fitness (log ratio)
-2.92

Give the measured polymerase ribozyme fitness (log ratio) of GACCAAUCUGCCCUCAGAGCUAGAGAACAUCUUCGGAUGCAGAGGAGGCAGGCUUCGGUCGCGCGAUAGCGCCAACGUCCUCAACCUCCGAUGCAUCCCACCACAUGAUGAUGCCUGAAGAGUCUUGGUUUUUUG [C22A G60C A90G C123U] .
-5.34

Report polymerase ribozyme fitness (log ratio) for GACCAAUCUGCCCUCAGAGCUCGAGAAUAUCUUCGGAUGCAGAGGAGGCAGGCUUCGGUGGCGCGAUAGCGCCAACGUCCUCAACCUCCAAUGCAUCCCACCAUAUGAUGAUGCCUGAAGAGCCUUGGUUUUUUG [C28U C104U] please.
-2.27

What value of measured polymerase ribozyme fitness (log ratio) is listed for GACCAAUCUGCCCUCAGCGCUCGAGAACGUCUUCGGAUGCAGAGGAGGCAGGCUUCGGUGGCGCGAUAGCGCCAACGUCCUCAACCUCCAAUGCAUCCCACCACAUUAUGAUGCCUGAAGAGCGCUGGUUUUUUG [A18C A29G G107U C124G U125C] ?
-7.59

Query (variant): GACCAAUCUGCCCUCAGAGCUCGAGAACAUCUUAGGAUGCAGAGGAGGCAGGCUUCGGUGGCGCGAUAGCGCCAACGUCCUCAACCUCUAAUGCAUCCCACCACAUGAUGAUGCCUGAAGAGCCUUGGUUUUUUG [C34A C89U] ; field requested: polymerase ribozyme fitness (log ratio)
-4.08

# polymerase ribozyme fitness (log ratio) lookup, item GACCAAUCUGCCCUCAGAGCUCGAGAACAUCUUCGGAUGCAGAGGAGGCAGGCUUCGGUGUCGCGAUAGCGCCAACGUCCUCAACCUCCAUUGCAUCCCACCACAUGAUGAUGCCUGAAGAGCCUUGGUUUUUUG [G61U A91U]
-1.05

Which measured polymerase ribozyme fitness (log ratio) value corresponds to GACCAAUCUGCCCGCAGAGCUCGAGACCAUCUUCGGAUGCAGAGGAGGCAGGCUUCGGUGGCGCGAUAGCGCCAACGUCCUCAAACUCCAAUGCAUCCCACCACAUGAAGAUGCCUGAAGAGCAUUGGUUUUUUG [U14G A27C C85A U109A C124A] ?
-6.27

Would you kindly share the measured polymerase ribozyme fitness (log ratio) for GACCAAUCGGCCCUCAGAGCUCGAGAACAUCUUCGGAUACAGAGGAGGCAGGCUUCAGUGGCGCGAUAGCGCCAACGUCCUCAACCUCCAAUGCAUCCCACCACAUGAUGAUGGCUAAAGAGCCUUGGUUUUUUG [U9G G39A G57A C114G G117A] ?
-6.32

Report polymerase ribozyme fitness (log ratio) for GACCAAUCUGCCCUCAGAGCUCGAGAACAUCUUCGGAUGCAGAGGAGGCAGGCUUCGGUGGCGCGAUAGCGCCAACGGCCUCAACCUCCAAUGCAUCCCACCACAUGAUGAUGCCUGAAGAGCCUUGGUUUUUUG [U78G] please.
-0.246

// polymerase ribozyme fitness (log ratio) lookup, key: GACCAAUCUGCCCUCAGAGCUCGAGAAUAUCUUCGGAUGCAGAGGAGGCAGGCUUCGGUGGCGCGAUAGCGUCAACGUCCUUAACCUCCAAUGCAUCCCACCACAUGAUGAUGCCUGAAGAGCCUUGGUUUUUUG [C28U C72U C82U]
-1.52

Fill blank: measured polymerase ribozyme fitness (log ratio) of the variant GACCAAUCUGCCCUCAGAGCUCGAGAACAUCUUCGGAUGCAGAGGAGGGAGGCUUCGGUGGCGCGAUAGAGCCAACGUCCUCAACCUCCAAUGCAUCCCACCACAUGAUGAUGCCUGAAGAGCCUUGGUUUUUUG [C49G C70A] is ____.
-2.2

The measured values listed here are drawn from the RNAGym collection of RNA variant scans (doi:10.1073/pnas.2313332121).
